Target: Fatty-acid amide hydrolase 1 (Mus musculus, UniProt O08914)
Sequence (O08914 whole entry): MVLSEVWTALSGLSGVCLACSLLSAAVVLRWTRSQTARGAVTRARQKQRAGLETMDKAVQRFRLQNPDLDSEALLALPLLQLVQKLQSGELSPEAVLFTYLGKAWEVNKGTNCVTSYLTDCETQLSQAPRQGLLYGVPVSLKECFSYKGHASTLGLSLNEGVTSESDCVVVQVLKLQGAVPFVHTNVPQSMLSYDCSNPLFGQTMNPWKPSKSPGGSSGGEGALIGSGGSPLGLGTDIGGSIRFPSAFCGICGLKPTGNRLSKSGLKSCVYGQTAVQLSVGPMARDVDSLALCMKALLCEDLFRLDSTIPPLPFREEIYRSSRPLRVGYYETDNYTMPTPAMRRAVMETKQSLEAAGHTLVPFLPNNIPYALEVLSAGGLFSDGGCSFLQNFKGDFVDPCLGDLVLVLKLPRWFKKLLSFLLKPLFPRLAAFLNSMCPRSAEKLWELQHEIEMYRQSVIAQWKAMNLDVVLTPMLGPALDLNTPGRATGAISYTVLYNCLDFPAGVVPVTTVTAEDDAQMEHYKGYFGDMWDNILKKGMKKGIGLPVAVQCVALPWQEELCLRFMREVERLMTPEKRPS
Assay: Inhibition of mouse FAAH isolated from brain homogenate using [3H-ethanolamine]AEA as substrate incubated for 20 mins prior to substrate addition measured after 15 mins by beta counting analysis
pIC50: −log10 of the molar value.
TEST_READOUT: pIC50

Cc1cc(C(N)=O)c(-c2cccc(OC(=O)NC3CCCCC3)c2)o1; < 7.15
CCCCNC(=O)Oc1cccc(-n2ccc(C(=O)OCCCCCCc3ccccc3)c2)c1; < 6.70
Cc1oc(-c2cccc(OC(=O)NC3CCCCC3)c2)cc1C(N)=O; < 6.70

Values from ChEMBL document CHEMBL2163339
